Test system: OVCAR-5 ovarian
Assay: NCI-60 one-dose screen, 48 h
Conditions: 10 µM unless noted
This is part of a sample that, as a whole, favours compounds with a hit. Of some 83,000 tested, about 20% had one in any assay. Calls of active or inactive are those of the source. The calls were made as follows: active = growth percent below 10; inactive = the rest.
Possible outcomes: active, inactive

• NNc1ccc(Cl)cc1Cl = inactive
• c1ccc2sc(SSN3CC4CCC(CC4)C3)nc2c1 = inactive
• O=C1C(=O)c2cc([N+](=O)[O-])ccc2-c2ccccc21 = active
• Cc1ccc2cccc(OC(=O)Nc3cccc(C(F)(F)F)c3)c2n1 = inactive
• NNc1cccc([N+](=O)[O-])c1 = inactive

---

Test system: SK-MEL-28 melanoma
Assay: NCI-60 one-dose screen, 48 h (100 = growth as untreated, 0 = no growth, -100 = all killed)
Details: 10 µM unless noted
The panel holds about 83,000 compounds, 20% with a hit somewhere; the sample as a whole holds those more often.
Label Met when growth is strictly below 80%; at or above that, label Not met.

- O=C(CBr)c1ccc(OC(=O)c2ccccc2)cc1: Not met
- CCN(CC)CCNc1ccc([N+](=O)[O-])c2sc3ccccc3c(=O)c12: Met
- Oc1ccc2ccccc2c1N=Nc1ccccn1: Met
- O=C(NNc1ccccc1)OCc1ccccc1: Not met
- COc1ccc(C(Cn2ccnc2)Sc2ccc(Cl)c(Cl)c2)cc1 (centres undefined): Not met
- CCCCCCCCCCCC[n+]1ccc2ccccc2c1: Met
- O=C(C[P+](c1ccccc1)(c1ccccc1)c1ccccc1)c1ccccc1: Not met
- O=C(/C=C/c1ccccc1)c1ccccc1O: Not met
- Cc1ccc2cccc(OC(=O)Nc3cccc(C(F)(F)F)c3)c2n1: Not met

---

Tested on: SN12C renal
Assay: NCI-60 one-dose screen, 48 h (100 = growth as untreated, 0 = no growth, -100 = all killed)
Conditions: 10 µM unless noted
Experimental: Growth inhibition of the SN12C human tumor cell line is measured as a screen for anti-cancer activity. Cells are grown in 96 well plates and exposed to the test compound for 48 hours. Compounds are tested at a single concentration, which is 10^-5 M for most compounds. The reported endpoint is percent growth (GI% or GIPRCNT), where numbers from 0 - 100% represent growth inhibition, and numbers from -100% - 0 represent cell death. For example, a value of 40 represents 60% growth inhibition. […]
The panel holds about 83,000 compounds, 20% with a hit somewhere; the sample as a whole holds those more often.
# note: exactly 80% is not below, so it is Condition not met; use Condition met for growth strictly under it

• CN=C(N)N/N=C(\C)c1ccc2c(c1)Cc1ccccc1-2 = Condition met
• O=C(c1ccccc1)C(Br)C(Br)c1ccccc1 (centres undefined) = Condition not met
• COC(=O)[C@]1(C)CCC[C@]2(C)c3ccc(C(C)C)cc3C(=O)[C@@H](Br)[C@@H]12 = Condition not met
• COc1ccc(C(Cn2ccnc2)Sc2ccc(Cl)c(Cl)c2)cc1 (centres undefined) = Condition not met
• N#CC(I)CS(=O)(=O)c1ccccc1 (centres undefined) = Condition not met
• O=C(Cc1nc2cc(Cl)c(Cl)cc2nc1CC(=O)c1ccccc1)c1ccccc1 = Condition met
• Cc1nnc(N/N=C/c2ccc([N+](=O)[O-])o2)[nH]c1=O = Condition met
• Cn1c(-c2ccccc2)c(/C=C/C2=[N+](C)c3ccccc3C2(C)C)c2ccccc21 = Condition met

Entry source: PubChem BioAssay (NCI)
